System: redroot pigweed (Amaranthus retroflexus, AMARE)
assayInfo: Post-emerge test, greenhouse herbicide activity screening
Type: in vivo
runConditions: Rate 63 g ai/ha; rating scale 0-100 (0 no damage, 100 complete death); 14 days after application
Procedure: A standard greenhouse herbicide activity screening system was used to evaluate the herbicidal efficacy and crop safety of these test compounds. […] At 14 days after application of the test materials, phytotoxicity ratings were recorded. […]
quantity: Post-emerge Herbicidal Activity, phytotoxicity rating AMARE

C#CCOC(=O)C(Cl)Cc1c(OC)c(Cl)cc(F)c1-n1c(=O)cc(C(F)(F)F)n(C)c1=O (single isomer, unassigned) :: 95
COc1c(Cl)cc(F)c(-n2c(=O)cc(C(F)(F)F)n(C)c2=O)c1CC(C)(Cl)C(=O)OCC1CCCO1 (stereo not shown) :: 100
CCOC(=O)C(Cl)Cc1c(OC)c(Cl)cc(F)c1-n1c(=O)cc(C(F)(F)F)n(C)c1=O (single isomer, unassigned) :: 100

Q: What value of Post-emerge Herbicidal Activity, phytotoxicity rating AMARE has been reported for the following compound? COc1c(Cl)cc(F)c(-n2c(=O)cc(C(F)(F)F)n(C)c2=O)c1CC(C)(Cl)C(=O)OCC(C)C (stereo not shown)
Result: 100

Q: Record request: Post-emerge Herbicidal Activity, phytotoxicity rating AMARE value, item COc1c(Cl)cc(F)c(-n2c(=O)cc(C(F)(F)F)n(C)c2=O)c1CC(Cl)C(=O)OC(C)(C)C (stereo not shown)
Result: 100

Q: Item COc1c(Cl)cc(F)c(-n2c(=O)cc(C(F)(F)F)n(C)c2=O)c1CC(C)(Cl)C(=O)OCCSC (stereo not shown) has what recorded Post-emerge Herbicidal Activity, phytotoxicity rating AMARE?
Result: 100

Q: Data request, read-out Post-emerge Herbicidal Activity, phytotoxicity rating AMARE, for COc1c(Cl)cc(F)c(-n2c(=O)cc(C(F)(F)F)n(C)c2=O)c1CC(Cl)C(=O)OCC(Br)CBr (single isomer, unassigned) [14-30]
Result: 70

----------
Listed here are compounds together with their documented phytotoxicity rating AMARE.
Test system: redroot pigweed (Amaranthus retroflexus, AMARE)
assayInfo: Post-emerge test, greenhouse herbicide activity screening
Format: in vivo
runConditions: post-emerge, 63 g ai/ha, 14 days after application, rating scale 0-100
Protocol: A standard greenhouse herbicide activity screening system was used to evaluate the herbicidal efficacy and crop safety of these test compounds. […] At 14 days after application of the test materials, phytotoxicity ratings were recorded. […]

COc1c(Cl)cc(F)c(-n2c(=O)cc(C(F)(F)F)n(C)c2=O)c1NC(=O)c1cccc(F)c1F :: 95
COc1c(Cl)cc(F)c(-n2c(=O)cc(C(F)(F)F)n(C)c2=O)c1NC(=O)C=Cc1ccccc1 :: 100
COc1c(Cl)cc(F)c(-n2c(=O)cc(C(F)(F)F)n(C)c2=O)c1NC(=O)COCc1ccccc1 :: 70

Q: What reported phytotoxicity rating AMARE corresponds to COc1c(Cl)cc(F)c(-n2c(=O)cc(C(F)(F)F)n(C)c2=O)c1N(C(=O)c1ccc(Cl)nc1)C(=O)c1ccc(Cl)nc1 on redroot pigweed (Amaranthus retroflexus, AMARE)?
Result: 80

----------
Tested on: johnsongrass (Sorghum halepense, SORHA)
assayInfo: Pre-emerge test, greenhouse herbicide activity screening
Type: in vivo
runConditions: pre-emerge, 63 g ai/ha, 14 days after application, scale 0-100
quantity: phytotoxicity rating SORHA
Could you keep your reply to the number by itself?

Completed entries (count: 3):
COc1c(Cl)cc(F)c(-n2c(=O)cc(C(F)(F)F)n(C)c2=O)c1NC(=O)CSC(C)C :: 0
COc1c(Cl)cc(F)c(-n2c(=O)cc(C(F)(F)F)n(C)c2=O)c1NC(=O)c1ccc2c(Br)cccc2c1 :: 0
Cn1c(C(F)(F)F)cc(=O)n(-c2c(F)cc(OC(F)F)cc2NC(=O)c2ccc3ccccc3c2)c1=O :: 0

Q: Given N#CCOc1c(Cl)cc(F)c(-n2c(=O)cc(C(F)(F)F)n(N)c2=O)c1NC(=O)c1ccc2ccccc2c1 , state its recorded phytotoxicity rating SORHA.
Result: 10

Q: Find the recorded phytotoxicity rating SORHA belonging to Cn1c(C(F)(F)F)cc(=O)n(-c2ccccc2NC(=O)c2ccc3ccccc3c2)c1=O and report it.
Result: 0

Q: Which phytotoxicity rating SORHA value belongs to COc1c(Cl)cc(F)c(-n2c(=O)cc(C(F)(F)F)n(C)c2=O)c1NC(=O)CCc1cc(C)ccc1C ?
Result: 30

Q: Any idea what phytotoxicity rating SORHA was measured for COc1c(Cl)cc(F)c(-n2c(=O)cc(C(F)(F)F)n(C)c2=O)c1NC(=O)Cc1ccccc1 ?
Result: 0

Q: Returns the measured phytotoxicity rating SORHA for the input compound. Input: COc1c(Cl)cc(F)c(-n2c(=O)cc(C(F)(F)F)n(C)c2=O)c1NC(=O)c1cc2ccccc2cc1C
Result: 30
